Origin of measurements: paper PMC9482650

- Target: FRMPD2_1, Q68DX3
- Sequence (Q68DX3 770-861): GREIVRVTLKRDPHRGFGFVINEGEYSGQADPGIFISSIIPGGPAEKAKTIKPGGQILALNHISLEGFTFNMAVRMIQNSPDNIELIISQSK
- Assay overview: holdup assay
- Parameters: key: below the threshold = too weak to quantify, mostly under pKd 3.1 to 4
- Condition info: plain residues with an end cap or a label only (N-terminal biotin on a linker: ado-ado)
Assay metric: pKd

APIAGFSSFV [SDK2, Q58EX2] = below the threshold
KPGKGSETVV [FZD4, Q9ULV1] = 3.54
PPGKHLVTEV [KCNA7, Q96RP8] = below the threshold
DDASLPVSDV [PLEKHA1, Q9HB21] = below the threshold
KRPEMTSSSV [MUC3B, MUC3A, Q02505;Q9H195] = below the threshold
QKAPTKEFYA [SDC2, P34741] = 4.1
EPQYQPGENL [SRC, P12931] = below the threshold
SRSVVESDEL [MYPN, Q86TC9] = below the threshold
